Cited source for all entries: PubChem BioAssay (EPA / NIEHS)

# study-target: Cellular tumor antigen p53 (Homo sapiens) (UniProt P04637)
# Sequence (P04637 whole entry, looked up): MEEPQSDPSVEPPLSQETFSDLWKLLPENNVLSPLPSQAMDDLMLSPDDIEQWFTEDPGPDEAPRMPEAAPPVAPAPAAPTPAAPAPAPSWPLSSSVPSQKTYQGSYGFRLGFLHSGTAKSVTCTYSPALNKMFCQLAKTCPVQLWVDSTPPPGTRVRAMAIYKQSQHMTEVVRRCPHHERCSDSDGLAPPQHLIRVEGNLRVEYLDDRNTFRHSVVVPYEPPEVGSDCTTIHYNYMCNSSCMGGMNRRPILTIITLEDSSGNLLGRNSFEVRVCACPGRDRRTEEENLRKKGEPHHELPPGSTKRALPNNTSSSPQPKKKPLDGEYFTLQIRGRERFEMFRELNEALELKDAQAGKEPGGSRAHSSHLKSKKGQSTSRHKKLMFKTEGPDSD
# experiment-description: TOX21_p53_BLA_p5_ratio: Tox21 HCT-116 p53 Agonism Beta-lactamase Assay, Ratio, Phase 5 (AID 2283599)
Inconclusive results are not listed. The source made the active and inactive calls. Rule for the calls: active = hit-call score of the fitted dose curve at least 0.9, where 1 is the maximum; inconclusive = response in the unintended direction; inactive = score below 0.9.
Outcomes: 1 for active, -1 for inactive

Clc1ccc(Nc2nnc(Cc3ccncc3)c3ccccc23)cc1: -1
O=C(O)c1cccc(C(=O)O)n1: -1
O=C1c2ccccc2C(=O)c2c(O)c(O)cc(O)c21: -1
CC(=O)CC(C)C: -1
Oc1ccc(Cc2ccccc2O)cc1: -1
CCCCCCc1ccc(N)cc1: -1
O=C(c1ccccc1)c1ccccc1: -1
O=c1cc(-c2ccccc2)oc2ccc3ccccc3c12: -1
CCCCCC(C)OC(=O)COc1ccc(Cl)c2cccnc12 (stereo not given): -1
CCN(CC)CC: -1
COC(=O)CC(C(C)=O)C(=O)OC (stereo not given): -1
CCCCCCC(C)(C)C(=O)O: -1
CCCCCCCCCCCCCC[n+]1ccccc1: -1
CCOCCOCC: -1
CNNCc1ccc(C(=O)NC(C)C)cc1: -1
CCCCCCCCCCCC[N+](C)(C)CCCCCCCCCCCC: 1
O=C(Nc1ccc(Cl)c(Cl)c1)c1cc(Cl)cc(Cl)c1O: 1
Cc1cc(C(C)(C)C)c(O)c(C(C)(C)C)c1: -1
CCOC(C)=O: -1
C=CC(C)(CCC=C(C)C)OC(C)=O (stereo not given): -1
